Recorded measurements of cell number change, one per entry
assay: qHTS Assay for Lipid Storage Modulators in Drosophila S3 Cells; settings: BODIPY lipid droplet fluorescence, 18-24 h, cells fed with added oleic acid; measured here: cell count max response;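 also: cells counted by Cell Tracker Red CMTPX staining in the red channel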
Out of some 320,000 compounds screened, about 2,100 (0.66%) were called active. Roughly 53% stayed inconclusive and do not appear here. Only a selection was taken, and actives are over-represented in it overall.
Answer format reminder: number followed by unit.

Look over these answered cases.
Using the record for NNC(=O)c1csc(-c2ncc(C(F)(F)F)cc2Cl)n1 , report its cell number change.
17.7%

Also O=c1[nH]cnc2sc3c(c12)CCC3 , if possible.
25.4%

Also Cc1ccc(S(=O)(=O)N/N=c2\oc3ccccc3cc2C(=O)Nc2cccc(C)c2)cc1 , if possible.
-24.3%

Also COc1ccc(C2CC(=O)N(CC(=O)NCC3CCCO3)c3ccccc3S2)cc1 (stereo not given) , if possible.
0.213%

# evaluate next
Using the record for CC(C)NC(=O)c1[nH]nc2c1CCc1ccccc1-2 , report its cell number change.
-0.945%
